- system-tested: wt BfrB (Pseudomonas aeruginosa bacterioferritin B, 24-mer) (Pseudomonas aeruginosa, UniProt Q9HY79 1-158)
- assay-explanation: SPR
measured-endpoint: Kd
In your response, put the unit directly after the numeric value.

Asked: If you can, please state the reported Kd value of wt Bfd (C43S mutant of P. aeruginosa bacterioferritin-associated ferredoxin) (natural protein, Pseudomonas aeruginosa) MYVCLCQGVTDNQIRDAIYEGCCSYREVREATGVGTQCGKCASLAKQVVRETLNDLQSAQPVPAFGTTAFVAA .
Given back: 3.3 µM
